Target: thymidylate synthetase (Mus musculus)
Construct: obtained in partially purified form from L1210 mouse leukaemia cells; endogenous in cells
Sequence (P07607 whole entry): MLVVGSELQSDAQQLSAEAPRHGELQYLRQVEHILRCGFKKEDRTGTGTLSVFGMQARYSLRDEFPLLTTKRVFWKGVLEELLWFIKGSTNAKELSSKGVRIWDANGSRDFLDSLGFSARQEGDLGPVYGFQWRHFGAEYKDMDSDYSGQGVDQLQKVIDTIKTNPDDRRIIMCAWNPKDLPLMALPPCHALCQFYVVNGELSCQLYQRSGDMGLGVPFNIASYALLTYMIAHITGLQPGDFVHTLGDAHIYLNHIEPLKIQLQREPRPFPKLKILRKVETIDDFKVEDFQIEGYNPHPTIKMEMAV
Experiment: Test (a): in vitro inhibition of thymidylate synthetase (partially purified from L1210 mouse leukaemia cells)
Conditions: enzyme partially purified from L1210 mouse leukaemia cells; read-out: IC50 against thymidylate synthetase [Test (a)]
Endpoint label: IC50 (µM)
Numeric answer only, unit µM assumed.

## Task Which measured IC50 belongs to C#CCN(Cc1ccc2nc(C)nc(O)c2c1)c1ccc(C(=O)NCCC)cc1 , tested on thymidylate synthetase (Mus musculus)?
## Result 1.8
